# assaySystem: HLA-A*03:01
# experimentNotes: IEDB peptide-MHC binding, purified MHC/direct/fluorescence; filed as Kd, often an IC50 or EC50 that approximates it; bounds were set here for any values at or beyond the usual limits of such assays
# conditionInfo: source organism: Bacillus anthracis

sequenceChain: GTGAGVPSK
Kd (nM): 1140

----------
# assaySystem: HLA-A*02:01
# experimentNotes: IEDB peptide-MHC binding, purified MHC/competitive/radioactivity; filed as Kd, often an IC50 or EC50 that approximates it; bounds were set here for any values at or beyond the usual limits of such assays
# conditionInfo: source organism: Vaccinia virus WR
readoutLabel: Kd

sequenceChain: IVLFQRFLR
readoutLabel: Kd
reportedMeasurement: ≥ 78.1 µM

----------
# assaySystem: HLA-A*01:01
# experimentNotes: IEDB peptide-MHC binding, purified MHC/direct/fluorescence; filed as Kd, often an IC50 or EC50 that approximates it; bounds were set here for any values at or beyond the usual limits of such assays
# conditionInfo: source organism: Bacillus licheniformis

sequenceChain: KTIECSKEL
assaySystem: HLA-A*01:01
Kd: ≥ 20 µM

----------
# assaySystem: HLA-A*01:01
# experimentNotes: IEDB peptide-MHC binding, purified MHC/direct/fluorescence; filed as Kd, often an IC50 or EC50 that approximates it; bounds were set here for any values at or beyond the usual limits of such assays
# conditionInfo: source organism: Brucella suis

sequenceChain: DVIGNDRQE
Kd: ≥ 20 µM

----------
# assaySystem: HLA-A*30:01
# experimentNotes: IEDB peptide-MHC binding, purified MHC/direct/fluorescence; filed as Kd, often an IC50 or EC50 that approximates it; bounds were set here for any values at or beyond the usual limits of such assays
# conditionInfo: source organism: Yersinia pestis
pKd: −log10 of the molar value.
readoutLabel: pKd

sequenceChain: YGLGSTPLY
assaySystem: HLA-A*30:01
readoutLabel: pKd
reportedMeasurement: 5.44

----------
# assaySystem: HLA-B*39:01
# experimentNotes: IEDB peptide-MHC binding, purified MHC/direct/fluorescence; filed as Kd, often an IC50 or EC50 that approximates it; bounds were set here for any values at or beyond the usual limits of such assays
# conditionInfo: source organism: Yersinia enterocolitica subsp. enterocolitica 8081
pKd: −log10 of the molar value.

sequenceChain: QWSPGPGRL
assaySystem: HLA-B*39:01
pKd: ≤ 4.70

----------
# assaySystem: HLA-B*48:01
# experimentNotes: IEDB peptide-MHC binding, purified MHC/direct/fluorescence; filed as Kd, often an IC50 or EC50 that approximates it; bounds were set here for any values at or beyond the usual limits of such assays
# conditionInfo: source organism: Ebola virus - Mayinga, Zaire, 1976
pKd: −log10 of the molar value.
readoutLabel: pKd

sequenceChain: FIYFGKKQY
readoutLabel: pKd
reportedMeasurement: ≤ 4.70

----------
Listed sequences paired with reported Kd
# assaySystem: HLA-B*07:02
# experimentNotes: IEDB peptide-MHC binding, purified MHC/direct/fluorescence; filed as Kd, often an IC50 or EC50 that approximates it; bounds were set here for any values at or beyond the usual limits of such assays
# conditionInfo: source organism: Marburg virus - Musoke, Kenya, 1980
readoutLabel: Kd

sequenceChain: NQECWDSVF
assaySystem: HLA-B*07:02
reportedMeasurement: ≥ 20 µM
//
sequenceChain: KRLLLKLDF
assaySystem: HLA-B*07:02
reportedMeasurement: ≥ 20 µM
